read-out: Monokine induced gamma interferon (MIG), CXCL9 (gene 4283); experiment: BSK_SAg_MIG: BioMAP Diversity Plus: SAg Assay for Monokine induced gamma interferon (MIG) Biomarker Activity (AID 2283092); details: primary human HUVEC with PBMC; actives raise or lower the signal
The source made the active and inactive calls. How the source made its calls: active means hit-call score of the fitted dose curve at least 0.9, where 1 is the maximum; inactive means score below 0.9.
Can you answer with just one of these options? active, inactive

Cc1cc(Cc2ccc(N)c(C)c2)ccc1N	inactive
O=C1CCCCC1	inactive
Cc1ccc(-c2cc(C(F)(F)F)nn2-c2ccc(S(N)(=O)=O)cc2)cc1	active
COC(=O)[C@H]1[C@H]2C[C@@H]3c4[nH]c5cc(OC)ccc5c4CCN3C[C@H]2C[C@@H](OC(=O)c2cc(OC)c(OC)c(OC)c2)[C@@H]1OC	active
C/C=C/C=C/C(=O)O	inactive

Attention now turns to another entry.
Query string: Just curious, what result did C=CCCCCCCCCCCCC get here?
Result string: inactive
